B1: DVL3 (parent)
chain: HPDPAPFCADNPSELPPPMERTGG

# Variants of: B1
# measurementDescription: protein stability index of a GFP-peptide fusion (GPS, HEK-293T) (PSI 1-6); higher = more stable;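 note: lentivirally expressed fusions sorted by FACS into six bins by GFP to DsRed ratio, PSI derived from sequencing read proportions per bin multiplied by bin number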
# conditionDescription: c terminus: a fixed tail appended
Please go through the items and note down their protein stability index.
Just the number, please.

**Q:** protein stability index for `P2L` ?
**A:** 1.93

**Q:** protein stability index for `T22W` ?
**A:** 2.22

**Q:** protein stability index for `P2T` ?
**A:** 2.27

**Q:** protein stability index for `P4L` ?
**A:** 4.8

**Q:** protein stability index for `P16M` ?
**A:** 3.02

**Q:** protein stability index for `A5E` ?
**A:** 3.91

**Q:** protein stability index for `A5Y` ?
**A:** 3.11

**Q:** protein stability index for `A5F` ?
**A:** 2.58

**Q:** protein stability index for `C8W` ?
**A:** 2.74

**Q:** protein stability index for `F7W` ?
**A:** 2.21

**Q:** protein stability index for `P16I` ?
**A:** 2.7

**Q:** protein stability index for `P17R` ?
**A:** 2.62

**Q:** protein stability index for `N11L` ?
**A:** 2.59

**Q:** protein stability index for `P4C` ?
**A:** 4.85

**Q:** protein stability index for `P2H` ?
**A:** 3.19

**Q:** protein stability index for `C8E` ?
**A:** 5.49

**Q:** protein stability index for `P6N` ?
**A:** 4.83

**Q:** protein stability index for `A5N` ?
**A:** 3.93

**Q:** protein stability index for `P17E` ?
**A:** 3.41

**Q:** protein stability index for `P16L` ?
**A:** 2.42

**Q:** protein stability index for `P2E` ?
**A:** 4.46

**Q:** protein stability index for `P4F` ?
**A:** 4.71

**Q:** protein stability index for `A5I` ?
**A:** 2.77

**Q:** protein stability index for `P4T` ?
**A:** 4.9

**Q:** protein stability index for `G23M` ?
**A:** 2.62

**Q:** protein stability index for `P17S` ?
**A:** 2.92

**Q:** protein stability index for `P18N` ?
**A:** 3.2

**Q:** protein stability index for `P2N` ?
**A:** 4.74

**Q:** protein stability index for `P16S` ?
**A:** 3.19

**Q:** protein stability index for `P4H` ?
**A:** 4.84

**Q:** protein stability index for `A5S` ?
**A:** 2.54

**Q:** protein stability index for `P12E` ?
**A:** 3.19

**Q:** protein stability index for `T22E` ?
**A:** 2.88

**Q:** protein stability index for `P16Q` ?
**A:** 3.59

**Q:** protein stability index for `E14G` ?
**A:** 2.65

**Q:** protein stability index for `A5C` ?
**A:** 2.75

**Q:** protein stability index for `P2K` ?
**A:** 5.1

**Q:** protein stability index for `P17M` ?
**A:** 2.54

**Q:** protein stability index for `P4E` ?
**A:** 5.24

**Q:** protein stability index for `P16K` ?
**A:** 2.19

**Q:** protein stability index for `P6G` ?
**A:** 3.57

**Q:** protein stability index for `P4I` ?
**A:** 4.99

**Q:** protein stability index for `P16C` ?
**A:** 2.38
